assay: AUC (0 to infinity) in ICR mouse plasma at 5 mg/kg, iv measured upto 24 hrs by LC-MS/MS analysis; type: ADME, organism-based
ASSAY_METRIC: AUC(0-inf) (ng·h/mL)
Give your result in ng·h/mL as a bare value.

Give the measured AUC(0-inf) of O=C(c1ccnc2ccc(Br)cc12)N1CCC[C@H]1CNS(=O)(=O)C(F)(F)F .
1980

====

test: AUC (0 to infinity) in ICR mouse plasma at 50 mg/kg, po measured upto 24 hrs by LC-MS/MS analysis; assay type: ADME, organism-based
Kindly state AUC(0-inf) for each of the entries shown.
Give your result in ng·h/mL as a bare value.

Give the measured AUC(0-inf) of O=C(c1ccnc2ccc(Br)cc12)N1CCC[C@H]1CNS(=O)(=O)C(F)(F)F .
16600

Do the same for O=C(c1ccnc2ccc(-c3ccnc(F)c3)cc12)N1CCC[C@H]1CNS(=O)(=O)C(F)(F)F please
10300

Do the same for O=C(c1ccnc2ccc(C3CC3)cc12)N1CCC[C@H]1CNS(=O)(=O)C(F)(F)F please
5490
